- Assayed target: T1, TtRecF D57C (Thermus thermophilus, UniProt Q5SLM9 1-343, D57C)
- T1 sequence: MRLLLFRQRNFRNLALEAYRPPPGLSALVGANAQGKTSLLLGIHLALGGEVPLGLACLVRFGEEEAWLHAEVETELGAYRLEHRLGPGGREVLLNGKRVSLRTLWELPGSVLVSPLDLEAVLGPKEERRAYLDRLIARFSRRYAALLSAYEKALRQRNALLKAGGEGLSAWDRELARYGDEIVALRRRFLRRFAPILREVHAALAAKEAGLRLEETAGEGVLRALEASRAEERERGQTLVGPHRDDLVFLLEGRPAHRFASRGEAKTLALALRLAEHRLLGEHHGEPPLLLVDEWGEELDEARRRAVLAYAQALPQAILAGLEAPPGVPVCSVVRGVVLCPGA
- Protocol text: BLI
pKd: −log10 of the molar value.
Measured quantity: pKd

Binder: GCAATGAAGTACGCTTGCCAGCTGCAGTCATGATTG (ssDNA) [biotinylated 36-mer ssDNA]
Measured number: 3.83

Ref: paper doi:10.1101/2019.12.17.877662
